- Tested on: NCI-H441
- assay-comment: relative viability (nuclei count vs DMSO), 5 days (fraction); higher = more cells survive
- condition-notes: first compound 0.253 µM
assay-readout: relative viability

1. Oc1nc(-c2ccc(C(F)(F)F)cc2)nc2c1CSCC2 [XAV939] + COc1cc2c(Oc3ccc(NC(=O)C4(C(=O)Nc5ccc(F)cc5)CC4)cc3F)ccnc2cc1OCCCN1CCOCC1 [Foretinib] (partner 0.25 µM) | 0.891
2. C=C1C(=O)O[C@@H](CCCCCCCC)[C@@H]1C(=O)O [C-75] + CS(=O)(=O)N1CCN(Cc2cc3nc(-c4cccc5[nH]ncc45)nc(N4CCOCC4)c3s2)CC1 [Pictilisib] (partner 1 µM) | 0.536
3. Oc1nc(-c2ccc(C(F)(F)F)cc2)nc2c1CSCC2 [XAV939] + O=C(c1cc(Cc2n[nH]c(=O)c3ccccc23)ccc1F)N1CCN(C(=O)C2CC2)CC1 [Olaparib] (partner 8 µM) | 0.448

Entry source: the supplement of paper PMC10307832
